- Test Target: SIK3 (Homo sapiens)
- Construct: purchased SignalChem S12-11G-100
- Experiment Description: biochemical
pIC50: −log10 of the molar value.
List of pIC50 values.

[
  {
    "Compound": "COc1cc(-n2cnc3cc(-c4cnn(C)c4)ccc32)cc(OC)c1C(=O)NC1COC1 [compound 92]",
    "Test Target": "SIK3 (Homo sapiens)",
    "pIC50": "7.00 to 8.00"
  },
  {
    "Compound": "COc1cc(-c2cnc3cc(-c4cc(C)no4)ccn23)cc(OC)c1C(=O)NCC(F)(F)F [compound 232]",
    "Test Target": "SIK3 (Homo sapiens)",
    "pIC50": "8.00 to 11.00"
  },
  {
    "Compound": "CCN1Cc2cc(-c3cnc4cc(-c5cnn(C)c5)ccn34)cc(NCCO)c2C1=O [compound 201]",
    "Test Target": "SIK3 (Homo sapiens)",
    "pIC50": "6.30 to 7.00"
  },
  {
    "Compound": "COc1cc(-n2cnc3cc(-c4cnn(CC5CCCO5)c4)ccc32)cc(OC)c1C(=O)NCC(F)(F)F (centres unmarked) [compound 111]",
    "Test Target": "SIK3 (Homo sapiens)",
    "pIC50": "8.00 to 11.00"
  },
  {
    "Compound": "COc1cc(-c2cnc3cc(-c4cnn(C)c4)ccn23)cc(OC)c1C(=O)N1CCC(C#N)C1 (centres unmarked) [compound 210]",
    "Test Target": "SIK3 (Homo sapiens)",
    "pIC50": "8.00 to 11.00"
  }
]

Reported pIC50, compound COc1cc(-c2cnc3cc(-c4cncnc4)ccn23)cc(OC)c1C(=O)NCC(F)(F)F [compound 242] : ____ 7.00 to 8.00

Reported pIC50, compound COc1cc(-n2cnc3cc(-c4cnn(C)c4)ccc32)cc(OC)c1C(=O)N1CC(c2ccccc2)C1 [compound 180] : ____ 6.30 to 7.00

Reported pIC50, compound CCn1cc(-c2ccc3c(c2)ncn3-c2cc(OC)c(C(=O)NCC(F)F)c(OC)c2)cn1 [compound 11] : ____ 8.00 to 11.00

---

- Test Target: SIK3 (Homo sapiens, UniProt Q9Y2K2)
- Construct: purchased SignalChem S12-11G-100
- Sequence (Q9Y2K2 whole entry): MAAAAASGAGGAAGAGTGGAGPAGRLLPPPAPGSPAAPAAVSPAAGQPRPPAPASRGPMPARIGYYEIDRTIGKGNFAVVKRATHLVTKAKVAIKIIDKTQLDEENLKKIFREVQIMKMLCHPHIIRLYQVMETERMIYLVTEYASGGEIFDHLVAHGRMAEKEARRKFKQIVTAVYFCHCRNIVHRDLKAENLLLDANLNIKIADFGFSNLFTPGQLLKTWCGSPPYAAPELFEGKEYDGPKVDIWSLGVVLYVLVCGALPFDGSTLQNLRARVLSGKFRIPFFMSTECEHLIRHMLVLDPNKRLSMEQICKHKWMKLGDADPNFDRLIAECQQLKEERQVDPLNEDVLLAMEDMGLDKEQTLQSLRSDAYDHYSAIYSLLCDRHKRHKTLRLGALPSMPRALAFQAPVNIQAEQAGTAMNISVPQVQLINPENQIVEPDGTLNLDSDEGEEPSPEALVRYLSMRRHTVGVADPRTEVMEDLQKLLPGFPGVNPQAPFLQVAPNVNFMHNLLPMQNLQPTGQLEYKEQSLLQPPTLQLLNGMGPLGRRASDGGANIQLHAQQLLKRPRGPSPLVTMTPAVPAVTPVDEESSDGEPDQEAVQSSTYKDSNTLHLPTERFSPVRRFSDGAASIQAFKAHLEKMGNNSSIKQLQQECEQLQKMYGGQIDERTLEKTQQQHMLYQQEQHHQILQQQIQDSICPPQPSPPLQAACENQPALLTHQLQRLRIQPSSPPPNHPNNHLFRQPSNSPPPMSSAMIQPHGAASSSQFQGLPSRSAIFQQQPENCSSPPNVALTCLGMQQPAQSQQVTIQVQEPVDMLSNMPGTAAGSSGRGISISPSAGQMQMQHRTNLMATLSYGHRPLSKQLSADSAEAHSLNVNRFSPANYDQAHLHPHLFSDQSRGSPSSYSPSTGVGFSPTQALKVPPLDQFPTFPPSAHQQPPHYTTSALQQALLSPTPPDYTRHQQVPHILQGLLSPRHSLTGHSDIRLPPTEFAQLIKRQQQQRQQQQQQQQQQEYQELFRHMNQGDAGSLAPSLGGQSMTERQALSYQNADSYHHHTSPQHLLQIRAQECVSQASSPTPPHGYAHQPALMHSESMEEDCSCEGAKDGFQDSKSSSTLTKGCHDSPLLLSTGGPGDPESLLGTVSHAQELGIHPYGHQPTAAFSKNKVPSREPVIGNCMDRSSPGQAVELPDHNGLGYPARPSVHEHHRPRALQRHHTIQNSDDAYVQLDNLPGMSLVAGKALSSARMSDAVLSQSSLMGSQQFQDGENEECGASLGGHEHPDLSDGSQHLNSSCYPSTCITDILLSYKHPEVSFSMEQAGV
- Experiment Description: biochemical
Readout Kind: IC50

Please review the following examples before continuing.
[
  {
    "Smiles String": "C#CC1(O)CN(C(=O)c2c(OC)cc(-n3cnc4cc(-c5cnn(C)c5)ccc43)cc2OC)C1",
    "Result": "10 to 100 nM"
  },
  {
    "Smiles String": "COc1cc(-n2cnc3cc(-c4cnn(C)c4)ccc32)cc(OC)c1C(=O)N[C@@H](C)C(F)(F)F",
    "Result": "10 to 100 nM"
  },
  {
    "Smiles String": "COc1cc(-n2cnc3cc(-c4cnn(C)c4)ccc32)cc(OC)c1C(=O)Nc1cnc(C)cn1",
    "Result": "100 to 500 nM"
  }
]

Reported IC50, molecule COc1cc(-c2cnc3cc(-c4cnn(C)c4)ccn23)cc(OC)c1C(=O)N[C@@H](C)C(F)(F)F : ____ 10 to 100 nM

Reported IC50, molecule COc1cc(-n2cnc3cc(-c4cn[nH]c4)ccc32)cc(OC)c1C(=O)NCC(F)(F)F : ____ 0.01 to 10 nM

Reported IC50, molecule COc1cc(-c2cnc3cc(-c4cnn(C)c4)ccn23)cc2c1C(=O)N(CC(F)(F)F)C2 : ____ 0.01 to 10 nM

Reported IC50, molecule COc1cc(-n2cnc3cc(-c4cnn(C)c4)ccc32)cc(OC)c1C(=O)N1CC(C2CCOCC2)C1 : ____ 100 to 500 nM
